src = paper PMC9246196

Experimental Details: DPPH radical scavenging assay
Type: biochemical
Readout Name: DPPH radical-scavenging IC50
Remember to follow the number with its unit.

In the examples that follow, each entry is paired with its recorded DPPH radical-scavenging IC50.
S=c1[nH]nc2c3c(-c4ccccc4)cn(-c4ccc(Cl)cc4)c3ncn12 | 129.38 µg/mL
Clc1cccc(-n2cc(-c3ccccc3)c3c2ncn2cnnc32)c1 | 160.05 µg/mL
COc1ccc(/C=N/Nc2ncnc3c2c(-c2ccccc2)cn3-c2cccc(Cl)c2)cc1 | 122.07 µg/mL

Please turn your attention to the following entry.
## Input Request the reported DPPH radical-scavenging IC50 associated with Cc1cc(C(C)(C)C)c(O)c(C(C)(C)C)c1 [BHT, butylated hydroxytoluene, reference compound]
## Output 128.77 µg/mL

###

Readout Name: melting point

In the examples that follow, each entry is paired with its recorded melting point.
Cc1nnc2c3c(-c4ccccc4)cn(-c4cccc(Cl)c4)c3ncn12 | 227 to 229 °C
COc1ccc(/C=N/Nc2ncnc3c2c(-c2ccccc2)cn3-c2cccc(Cl)c2)cc1 | 167 to 169 °C
O=c1[nH]nc2c3c(-c4ccccc4)cn(-c4ccc(Cl)cc4)c3ncn12 | 233 to 235 °C
O=c1[nH]nc2c3c(-c4ccccc4)cn(-c4cccc(Cl)c4)c3ncn12 | 226 to 228 °C
Clc1cccc(-n2cc(-c3ccccc3)c3c2ncn2cnnc32)c1 | 176 to 178 °C
Clc1cccc(-n2cc(-c3ccccc3)c3c(N/N=C/c4ccccc4)ncnc32)c1 | 187 to 189 °C
COc1ccc(/C=N/Nc2ncnc3c2c(-c2ccccc2)cn3-c2ccc(Cl)cc2)cc1 | 194 to 196 °C

Please turn your attention to the following entry.
## Input Request the reported melting point associated with S=c1[nH]nc2c3c(-c4ccccc4)cn(-c4ccc(Cl)cc4)c3ncn12
## Output 187 to 189 °C
